# Tested on: M19-MEL melanoma
# assay remarks: NCI tumour cell line growth inhibition, 48 h
For each record, write down the corresponding TGI.

Consider the following illustrative entries.
1) Cc1cccc(C)c1NC(=O)C(=O)CC(=O)CO ... > 100 µM
2) CC(=O)/C=C/c1c[nH]c(=O)[nH]c1=O ... 771 µM
3) O=C(O)c1ccc([N+](=O)[O-])c2c(=O)c3ccccc3[nH]c12 ... > 100 µM
4) CCOC(=O)NC(=O)c1cn(CCCOC(=O)CCCCCCCCC(=O)OCCCn2cc(C(=O)NC(=O)OCC)c(=O)[nH]c2=O)c(=O)[nH]c1=O ... > 100 µM
5) Nc1ccccc1Sc1ccc(Cl)cc1 ... 60.7 µM

Look up TGI for the entries below, preserving their order.
1. Cc1ccc(S(=O)(=O)OCC23CCC(C4CC42)C2CC23)cc1 (stereo not given)
2. CNS(=O)(=O)NN(C)S(=O)(=O)c1ccc(Br)cc1
3. CC(C)(C)C(=O)C(c1ccc(-c2cscn2)cc1)c1ccc(-c2cscn2)cc1
4. O=C(Nc1nccs1)c1cc(C2=CC=CC([N+](=O)[O-])C=C2)nc(=S)[nH]1 (stereo not given)

output:
1: > 100 µM; 2: > 100 µM; 3: > 100 µM; 4: > 100 µM

input: Return value of TGI for input O=C(c1ccc(NCN2C(=O)CCC2=O)cc1)c1ccc(NCN2C(=O)CCC2=O)cc1 , no commentary.
output: > 100 µM

====

# System: NCI-H23 lung
# assay remarks: NCI tumour cell line growth inhibition, 48 h
So I've got a bunch of molecules here, and I need their log10 of TGI values.
Give log10 of TGI, with TGI taken in µM.

Below are worked cases with known answers.
1. C/C(=N/NC(=S)N(Cc1ccccn1)Cc1ccccn1)c1cnccn1 ... 1.06
2. COc1cccc2c1C(=O)c1ccc3cc(CO)cc(O)c3c1C2=O ... 0.07
3. C/C=C/[C@@H]1O[C@H](CC#C[Si](C)(C)C)[C@@]2(C=O)C(C)=CC[C@H](C(C)C)[C@@H]12 ... 1.70
4. CCOP(=O)(OCC)C(Cc1ccccc1)N=C(c1ccccc1)c1ccccc1 (configuration not stated) ... 1.46
5. CCc1nc2ccc(Cc3ccc(C(=O)NO)cc3)cc2c(=O)n1CCc1ccccc1 ... 0.59

The following molecules each have a reported value; give each one's log10 of TGI.
1. COc1ccc(/C=C2\CNC/C(=C\c3ccc(OC)cc3)C2=O)cc1
2. O=[N+]([O-])C(=C/C1CCCCC1)/C(=C\C1CCCCC1)[N+](=O)[O-]

output:
[1.78, 1.00]

====

# Test system: BT-549 breast
# assay remarks: NCI tumour cell line growth inhibition, 48 h; in the data active means GI50 below about 0.43 µM; inactive means the rest
Please answer using one outcome listed in yes (1) (active), no (0) (inactive)

# example entries with known answers
1. Cc1nc(Nc2ccc(F)c(Cl)c2)sc1C(=O)O ... no (0)
2. CCc1ccc(CCC(=O)Nc2ncc(Cc3ccccc3)s2)o1 ... no (0)
3. COc1ccc(/C=C(\C#N)c2cc(OC)c3c(c2)OCO3)cc1 ... yes (1)
4. Cc1cc2c(C(N)=O)cccc2n1-c1nc2c(c(NCc3ccccc3)n1)CCCN2 ... yes (1)

input: Record request — test call for N#CC(C#N)=CN1CCN(C(=O)c2ccccc2)C1=S
output: no (0)

input: Please state the recorded outcome for this molecule: COc1cc(-c2cc(-c3nc4ccccc4[nH]3)[nH]n2)cc(OC)c1OC
output: no (0)

input: // return assay outcome for Cc1c(Cl)cccc1NC(=O)c1sc2nc3c(cc2c1N)CCCCCC3
output: no (0)

input: State the result this test recorded for O=C(N/N=C/c1ccc(O)cc1O)c1ccc(Nc2ccnc(C(F)(F)F)c2)cc1 .
output: no (0)

input: Please state the recorded outcome for this molecule: Cc1nc(NC(=S)Nc2ccc(F)cc2)sc1C(=O)NNC(=S)Nc1ccc(F)cc1
output: no (0)

input: Hey, what did the test say about CO/N=C1/NC(=O)/C(=C/c2ccc3ncccc3c2)S1 ?
output: no (0)
